- System: U937 cells
- TEST DETAILS: EC50 of necroptosis inhibition in U937 cells (TSZ-induced, CellTiter-Glo)
- Assay type: cell-based
- TEST CONTEXT: Homo sapiens, U-937; TSZ (hTNF-α, SM-164, Z-VAD-FMK) 20 hours; 10 concentration points; read-out: EC50 intervals of necroptosis inhibition in U937 cells
pEC50: −log10 of the molar value.
pEC50 listing for selected compounds.
ENDPOINT: pEC50

                                    compound  experimental_result
 0  CN1C(=O)[C@@H](NC(=O)C(=O)NCCc2cccc(F)c2)COc2ccc(C#CC3(O)CCCCC3)cc21               > 7.00
 1  CN1C(=O)[C@@H](NC(=O)C(=O)NCCc2ccccc2)COc2ccc(C#CCN3CCC(O)C3)cc21 (stereo partly drawn)               > 7.00
 2  CN1C(=O)[C@@H](NC(=O)C(=O)NCCc2ccccc2F)COc2ccc(C#CCCO)cc21               > 7.00
 3  CN1C(=O)[C@@H](NC(=O)C(=O)NCc2ccccc2)COc2ccc(C#CCN3CCNC(=O)C3)cc21               > 7.00
 4  CN1C(=O)[C@@H](NC(=O)C(=O)NCc2cccc(F)c2)COc2ccc(C#CCCO)cc21         6.30 to 7.00
 5  CN1C(=O)[C@@H](NC(=O)C(=O)NCc2ccccc2)COc2ccccc21         5.70 to 6.30
 6  C[C@@H](NC(=O)C(=O)N[C@H]1COc2ccc(C#CC3CN(CC#N)C3)cc2N(C)C1=O)c1ccccc1               > 7.00
 7  C[C@@H](NC(=O)C(=O)N[C@H]1COc2ccc(C#CC3COC3)cc2N(C)C1=O)c1ccccc1               > 7.00
 8  CN1C(=O)[C@@H](NC(=O)C(=O)NCCc2ccccc2)COc2ccc(C#CC3(O)CCOC3)cc21 (stereo partly drawn)               > 7.00
 9  C[C@@H](CNC(=O)C(=O)N[C@H]1COc2ccc(C#CCCO)cc2N(C)C1=O)c1ccccc1               > 7.00
10  CN1C(=O)[C@@H](NC(=O)C(=O)NCCc2ccccc2)COc2ccc(C#CC3=CCCCC3)cc21               > 7.00
11  C#Cc1ccc2c(c1)N(C)C(=O)[C@@H](NC(=O)C(=O)NCCc1ccccc1)CO2               > 7.00
12  CN1C(=O)[C@@H](NC(=O)C(=O)NCCc2cccc(F)c2)COc2ccc(C#CC(C)(C)O)cc21               > 7.00
13  C[C@@H](NC(=O)C(=O)N[C@H]1COc2ccc(C#CCN3CCNCC3)cc2N(C)C1=O)c1ccccc1               > 7.00
14  CN1C(=O)[C@@H](NC(=O)C(=O)NCCc2ccccc2)COc2ccc(C#CC3CCCNC3)cc21 (stereo partly drawn)               > 7.00
15  CN1C(=O)[C@@H](NC(=O)C(=O)NCCc2cccc(F)c2)COc2ccc(C#CCN3CCNC(=O)C3)cc21               > 7.00
16  CN1C(=O)C(NC(=O)C(=O)NCCc2ccccc2)CCc2cccnc21 (stereo not drawn)         5.70 to 6.30
17  C[C@@H](NC(=O)C(=O)N[C@H]1COc2ccc(C#CC3CN(N=O)C3)cc2N(C)C1=O)c1ccccc1               > 7.00
18  CC(=O)N1CC(O)(C#Cc2ccc3c(c2)N(C)C(=O)[C@@H](NC(=O)C(=O)NCCc2ccccc2)CO3)C1         6.30 to 7.00
19  C[C@@H](CNC(=O)C(=O)N[C@H]1COc2ccc(C#CCN3CCOCC3)cc2N(C)C1=O)c1ccccc1               > 7.00
20  CN1C(=O)[C@@H](NC(=O)C(=O)NCCc2ccccc2)COc2ccc(C#Cc3cncnc3)cc21               > 7.00
21  CN1C(=O)[C@@H](NC(=O)C(=O)NCCc2ccccc2)COc2ccc(C#C[Si](C)(C)C)cc21               > 7.00
22  C[C@@H](NC(=O)C(=O)N[C@H]1COc2ccc(C#CCn3ccnc3)cc2N(C)C1=O)c1ccccc1               > 7.00
23  CN1C(=O)[C@@H](NC(=O)C(=O)NCCc2ccccc2)COc2ccc(Br)cc21         6.30 to 7.00
24  CN1C(=O)[C@@H](NC(=O)C(=O)NCCc2cccc(F)c2)COc2ccc(C#CCN3CC[C@@H](O)C3)cc21               > 7.00
25  CN1C(=O)[C@@H](NC(=O)C(=O)NCCc2ccccc2)COc2ccc(C#CCN3CCN(CCO)CC3)cc21               > 7.00
26  CN1C(=O)[C@@H](NC(=O)C(=O)NCCc2ccccc2)COc2ccc(C#CC3COC3)cc21               > 7.00
27  CN1C(=O)[C@@H](NC(=O)C(=O)NCCOc2ccccc2)COc2ccccc21         5.70 to 6.30
28  C#CCOc1ccc2c(c1)N(C)C(=O)[C@@H](NC(=O)C(=O)NCCc1ccccc1)CO2         6.30 to 7.00
29  CN1C(=O)[C@@H](NC(=O)C(=O)NCCc2cccc(F)c2)COc2ccc(C#Cc3cccnc3)cc21               > 7.00

From: patent US20250368633A1
